Just for reference, PubChem BioAssay (NCATS) is where these values come from.

Target: Cytochrome P450 2D6 (Homo sapiens) (UniProt P10635)
Sequence (P10635 whole entry, looked up): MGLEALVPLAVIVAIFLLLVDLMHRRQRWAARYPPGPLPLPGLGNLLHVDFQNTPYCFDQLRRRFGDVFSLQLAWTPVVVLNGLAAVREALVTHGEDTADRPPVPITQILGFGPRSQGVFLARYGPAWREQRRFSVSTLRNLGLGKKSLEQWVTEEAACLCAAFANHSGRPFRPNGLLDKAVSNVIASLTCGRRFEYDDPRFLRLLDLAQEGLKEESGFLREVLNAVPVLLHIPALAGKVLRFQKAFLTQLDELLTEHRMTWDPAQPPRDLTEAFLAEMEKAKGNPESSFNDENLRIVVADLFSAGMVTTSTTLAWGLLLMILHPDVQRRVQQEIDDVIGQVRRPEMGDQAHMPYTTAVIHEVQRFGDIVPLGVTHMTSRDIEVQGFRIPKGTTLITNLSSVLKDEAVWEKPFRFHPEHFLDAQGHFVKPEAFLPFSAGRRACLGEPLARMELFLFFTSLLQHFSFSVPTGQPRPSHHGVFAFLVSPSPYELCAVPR
Assay: qHTS Assay for Inhibitors and Substrates of Cytochrome P450 2D6 (AID 891);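 further: luciferin methyl ether substrate demethylated by CYP2D6 with NADPH regeneration; on the % scale 0 is the no-effect control and ±100 the full control effect; nearly all actives have a fitted effect of over 60% in size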
Details: recombinant CYP2D6, luciferin-ME EGE luminescence; series mostly up to 57.1 µM
Experimental: NIH Molecular Libraries Screening Centers Network [MLSCN] NIH Chemical Genomics Center [NCGC] The P450 gene superfamily is involved in the metabolism and clearance of xenobiotics. […] The luciferin is then measured by luminescence after the addition of a luciferase detection reagent. […] Inhibitors and some substrates limit the production of luciferin, and decrease measured luminescence. […]
Inconclusive results are not listed. Active and inactive are the calls of the source. The call rests on the fitted dose curve; in most records, active means well fitted inhibition curve with a large enough effect; inconclusive means small, poorly fitted or top-dose-only effect; inactive means no such curve, though single readings can be large or run the other way.
assayReadout: activity change, negative = inhibition

INSERT INTO assay_data (smilescode, studysystem, value) VALUES
  ('COC1=CC(=O)C[C@@H](C)[C@@]12Oc1c(Cl)c(OC)cc(OC)c1C2=O', 'Cytochrome P450 2D6 (Homo sapiens) (UniProt P10635)', 'inactive'),
  ('NCCCC(=O)O', 'Cytochrome P450 2D6 (Homo sapiens) (UniProt P10635)', 'inactive'),
  ('CC(=O)C1=C(O)C=C2Oc3c(C(C)=O)c(O)c(C)c(O)c3[C@]2(C)C1=O', 'Cytochrome P450 2D6 (Homo sapiens) (UniProt P10635)', 'inactive'),
  ('O=C(O)c1cc2ccccc2c(Cc2c(O)c(C(=O)O)cc3ccccc23)c1O', 'Cytochrome P450 2D6 (Homo sapiens) (UniProt P10635)', '6.29% [at 11.4 µM] (inactive)');

---

Test: Primary qHTS for inhibitors of nuclear receptor binding SET domain protein 2 (NSD2) in an isogenic RCH-ACV NSD2 p.E1099K mutant (9B) (AID 1645876); further: nearly all actives have a fitted effect of over 70% in size
Conditions: RCH-ACV (leukaemia line) NSD2 E1099K (9B) viability, CellTiter-Glo, 72 h; series mostly up to 44.9 µM
Inconclusive results are not listed. The source made the active and inactive calls. Calls follow the shape of the dose curve; as a rule, active = well fitted inhibition curve with a large enough effect; inconclusive = small, poorly fitted or top-dose-only effect; inactive = flat fitted curve, though single readings scatter.
Mark one answer only. Choices: TRUE (active), FALSE (inactive)

// outcome(item) with item = `C=CC(=O)N1CCCN(c2cc(NCCC(=O)O)nc(-c3ccccn3)n2)CC1`
FALSE

// outcome(item) with item = CC(=O)O[C@H]1CC(C)(C)CC2[C@]13CO[C@@]21CCC2[C@@]4(C)CC[C@H](O[C@@H]5OC[C@H](O[C@@H]6O[C@H](CO)[C@@H](O)[C@H](O)[C@H]6O[C@@H]6OC[C@@H](O)[C@H](O)[C@H]6O)[C@H](O)[C@H]5O[C@@H]5O[C@H](CO)[C@@H](O)[C@H](O)[C@H]5O)[C@@](C)(CO)C4CC[C@@]2(C)[C@]1(C)C[C@H]3O (some centres undefined)
TRUE

// outcome(item) with item = CC(O)(C(=O)O)C1CCC2(C)C1CCC1(C)C2CCC2C3(C)CCC(O)C(C)(COC4OC(CO)C(O)C(O)C4O)C3CCC21C (centres undefined)
FALSE

// outcome(item) with item = `CN1C(=O)c2sccc2N(C)c2nc(Nc3ccc(S(N)(=O)=O)cc3)ncc21`
TRUE

// outcome(item) with item = `O=C(NCCCCN1CCN(c2cccc(Cl)c2Cl)CC1)c1cc2ccccc2s1`
TRUE

// outcome(item) with item = `C[C@]12CC[C@@H]3c4ccc(O)c(O)c4CC[C@H]3[C@@H]1CCC2=O`
TRUE
